- assay target: MMP-1 (Homo sapiens, UniProt P03956)
- Sequence (P03956 100-469): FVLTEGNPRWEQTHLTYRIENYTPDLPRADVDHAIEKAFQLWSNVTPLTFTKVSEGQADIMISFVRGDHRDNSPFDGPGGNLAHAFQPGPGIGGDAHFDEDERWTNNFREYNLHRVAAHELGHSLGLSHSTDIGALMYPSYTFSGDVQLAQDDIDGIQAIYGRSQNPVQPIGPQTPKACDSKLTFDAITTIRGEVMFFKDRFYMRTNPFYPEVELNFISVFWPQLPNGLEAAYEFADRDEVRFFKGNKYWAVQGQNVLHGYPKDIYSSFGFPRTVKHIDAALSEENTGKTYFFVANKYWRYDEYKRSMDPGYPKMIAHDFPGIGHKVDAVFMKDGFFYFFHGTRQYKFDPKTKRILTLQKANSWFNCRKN
- assay text: MMP-1 inhibition (thiopeptide or fluorescent peptide substrate)
- Type: biochemical
- study conditions: read-out: IC50 (nM) or % Inhibition (µM) MMP-1
readout type: inhibition at 10 µM (%)
Number in %, nothing else.

Lookup: Please report the recorded inhibition at 10 µM for "COc1ccccc1C#CCOc1ccc(S(=O)(=O)N(C)c2c(C)cc(Br)cc2C(=O)NO)cc1" .
Found: 52

Lookup: Further, for "Cc1cc(Br)cc(C(=O)NO)c1N(C)S(=O)(=O)c1ccc(OCC#CCNCCCN(C)C)cc1" ?
Found: 32

Lookup: Further, for "Cc1cc(Br)cc(C(=O)NO)c1N(C)S(=O)(=O)c1ccc(OCC#CCNC2CCC2)cc1" ?
Found: 19

Lookup: Further, for "CCN(CC)CC#CCOc1ccc(S(=O)(=O)N(C)c2c(C)cc(Br)cc2C(=O)NO)cc1" ?
Found: 21

* * *

Field: IC50. Provide a value for each of the compounds that follow.
- assay target: MMP-13 (Homo sapiens)
- assay text: MMP-13 inhibition (thiopeptide or fluorescent peptide substrate)
- Format: biochemical
Number in nM, nothing else.

Lookup: Give MMP-13 (Homo sapiens) IC50 for Cc1cc(Br)cc(C(=O)NO)c1N(C)S(=O)(=O)c1ccc(OCC#CCNCCCN(C)C)cc1 [Example 33]
Found: 908

Lookup: Further, for CCCC#CCOc1ccc(S(=O)(=O)N(C)c2c(C)cc(Br)cc2C(=O)NO)cc1 [Example 57] ?
Found: 358

Lookup: Further, for CC#CCOc1ccc(S(=O)(=O)N(C)c2c(CN3CCN(C)CC3)cc(-c3ccccc3)cc2C(=O)NO)cc1 [Example 76] ?
Found: 47

Lookup: Further, for COc1ccc(S(=O)(=O)N(C)c2c(C)cc(Br)cc2C(=O)NO)cc1 [Example 36] ?
Found: 21

Lookup: Further, for CC#CCOc1ccc(S(=O)(=O)N(C)c2c(C)cc(I)cc2C(=O)NO)cc1 [Example 63] ?
Found: 275

Lookup: Further, for Cc1cc(Br)cc(C(=O)NO)c1N(C)S(=O)(=O)c1ccc(OCC#CCO)cc1 [Example 70] ?
Found: 83

Lookup: Further, for COCC#CCOc1ccc(S(=O)(=O)N(C)c2c(C)cc(Br)cc2C(=O)NO)cc1 [Example 58] ?
Found: 233

Lookup: Further, for Cc1cc(Br)cc(C(=O)NO)c1N(C)S(=O)(=O)c1ccc(OCC#CCN2CCCC2)cc1 [Example 65] ?
Found: 537

* * *

- assay target: MMP-13 (Homo sapiens)
- assay text: MMP-13 inhibition (thiopeptide or fluorescent peptide substrate)
- Assay type: biochemical
readout type: log10 of IC50 (log10 of the value in nM)
Field: value | Transform: log10 | Quantity: IC50 | Unit: nM

Lookup: Please report the recorded log10 of IC50 for CC#CCOc1ccc(S(=O)(=O)N(Cc2ccccc2)c2c(C)cc(C)cc2C(=O)NO)cc1 [Example 64] .
Found: 2.49

Lookup: Further, for CCC#CCOc1ccc(S(=O)(=O)N(C)c2c(C)cc(Br)cc2C(=O)NO)cc1 [Example 55] ?
Found: 2.46

Lookup: Further, for Cc1cc(Br)cc(C(=O)NO)c1N(C)S(=O)(=O)c1ccc(OCC#CCNC2CCC2)cc1 [Example 31] ?
Found: 2.86

Lookup: Further, for CCN(CC)CC#CCOc1ccc(S(=O)(=O)N(C)c2c(C)cc(Br)cc2C(=O)NO)cc1 [Example 66] ?
Found: 3.38

Lookup: Further, for Cc1cc(Br)cc(C(=O)NO)c1N(C)S(=O)(=O)c1ccc(OCC#Cc2ccccc2)cc1 [Example 59] ?
Found: 2.51

Lookup: Further, for C#CCOc1ccc(S(=O)(=O)N(C)c2c(C)cc(Br)cc2C(=O)NO)cc1 [Example 53] ?
Found: 1.72

Lookup: Further, for COc1ccccc1C#CCOc1ccc(S(=O)(=O)N(C)c2c(C)cc(Br)cc2C(=O)NO)cc1 [Example 61] ?
Found: 3.08

Lookup: Further, for CC#CCOc1ccc(S(=O)(=O)N(C)c2c(C)cc(Br)cc2C(=O)NO)cc1 [Example 54] ?
Found: 2.19

Lookup: Further, for Cc1cc(Br)cc(C(=O)NO)c1N(C)S(=O)(=O)c1ccc(OCC#CCOC2CCCCO2)cc1 (centres unmarked) [Example 69] ?
Found: 2.25

Lookup: Further, for C#CC(C)Oc1ccc(S(=O)(=O)N(C)c2c(C)cc(Br)cc2C(=O)NO)cc1 (centres unmarked) [Example 79] ?
Found: 2.64

Lookup: Further, for CC#CCOc1ccc(S(=O)(=O)N(C)c2c(C)cc(-c3ccccc3)cc2C(=O)NO)cc1 [Example 43] ?
Found: 2.71

Lookup: Further, for COc1cccc(C#CCOc2ccc(S(=O)(=O)N(C)c3c(C)cc(Br)cc3C(=O)NO)cc2)c1 [Example 60] ?
Found: 2.97

Lookup: Further, for Cc1cc(Br)cc(C(=O)NO)c1N(C)S(=O)(=O)c1ccc(OCC#Cc2cccc(O)c2)cc1 [Example 84] ?
Found: 2.28

Lookup: Further, for Cc1cc(Br)cc(C(=O)NO)c1N(C)S(=O)(=O)c1ccc(OCC#CCNCCN(C)C)cc1 [Example 34] ?
Found: 2.58

Lookup: Further, for CCCCC#CCOc1ccc(S(=O)(=O)N(C)c2c(C)cc(Br)cc2C(=O)NO)cc1 [Example 56] ?
Found: 2.85

Lookup: Further, for COc1ccc(C#CCOc2ccc(S(=O)(=O)N(C)c3c(C)cc(Br)cc3C(=O)NO)cc2)cc1 [Example 62] ?
Found: 2.77

Lookup: Further, for CNCC#CCOc1ccc(S(=O)(=O)N(C)c2c(C)cc(Br)cc2C(=O)NO)cc1 [Example 32] ?
Found: 2.41

* * *

- assay target: MMP-1 (Homo sapiens, UniProt P03956)
- Sequence (P03956 100-469): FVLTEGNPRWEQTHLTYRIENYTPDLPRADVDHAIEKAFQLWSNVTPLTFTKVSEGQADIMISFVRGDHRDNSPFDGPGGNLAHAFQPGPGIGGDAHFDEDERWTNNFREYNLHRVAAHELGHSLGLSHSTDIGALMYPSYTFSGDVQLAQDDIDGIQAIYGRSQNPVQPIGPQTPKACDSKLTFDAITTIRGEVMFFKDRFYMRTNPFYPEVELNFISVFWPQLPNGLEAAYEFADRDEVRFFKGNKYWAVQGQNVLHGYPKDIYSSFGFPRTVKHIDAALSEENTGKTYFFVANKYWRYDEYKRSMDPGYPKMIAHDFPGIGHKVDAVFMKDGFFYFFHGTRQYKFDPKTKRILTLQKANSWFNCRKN
- assay text: MMP-1 inhibition (thiopeptide or fluorescent peptide substrate)
- Assay type: biochemical
- study conditions: plain number = IC50
- Experimental: The enzyme activity is measured by the rate of the color increase. The thiopeptide substrate is made up fresh as a 20 mM stock in 100% DMSO and the DTNB is dissolved in 100% DMSO as a 100 mM stock and stored in the dark at room temperature. […] Alternatively, a fluorescent peptide substrate is used. […] Upon cleavage of the substrate by an MMP, the fluorescence that is generated is quantitated on the fluorescence plate reader. […]
Label Satisfied when IC50 is strictly below 2000 nM; otherwise label Not satisfied.

Lookup: Quick check: IC50 of "Cc1cc(Br)cc(C(=O)NO)c1N(C)S(=O)(=O)c1ccc(OCC#CCO)cc1" under 2000 nM?
Found: Not satisfied

Lookup: Further, for "CC#CCOc1ccc(S(=O)(=O)N(C)c2c(C)cc(Br)cc2C(=O)NO)cc1" ?
Found: Satisfied

Lookup: Further, for "Cc1cc(Br)cc(C(=O)NO)c1N(C)S(=O)(=O)c1ccc(OCC#CCN2CCCC2)cc1" ?
Found: Not satisfied

Lookup: Further, for "CC#CCOc1ccc(S(=O)(=O)N(Cc2ccccc2)c2c(C)cc(C)cc2C(=O)NO)cc1" ?
Found: Satisfied

Lookup: Further, for "CC#CCOc1ccc(S(=O)(=O)N(C)c2c(CN3CCN(C)CC3)cc(-c3ccccc3)cc2C(=O)NO)cc1" ?
Found: Satisfied

Lookup: Further, for C#CC(C)Oc1ccc(S(=O)(=O)N(C)c2c(C)cc(Br)cc2C(=O)NO)cc1 (centres unmarked) ?
Found: Satisfied

Lookup: Further, for "COCC#CCOc1ccc(S(=O)(=O)N(C)c2c(C)cc(Br)cc2C(=O)NO)cc1" ?
Found: Not satisfied

Lookup: Further, for "COc1cccc(C#CCOc2ccc(S(=O)(=O)N(C)c3c(C)cc(Br)cc3C(=O)NO)cc2)c1" ?
Found: Satisfied

Lookup: Further, for "CC#CCOc1ccc(S(=O)(=O)N(C)c2c(C)cc(-c3ccccc3)cc2C(=O)NO)cc1" ?
Found: Not satisfied

Lookup: Further, for "C#CCOc1ccc(S(=O)(=O)N(C)c2c(C)cc(Br)cc2C(=O)NO)cc1" ?
Found: Satisfied

Lookup: Further, for "CC#CCOc1ccc(S(=O)(=O)N(C)c2c(C)cc(I)cc2C(=O)NO)cc1" ?
Found: Satisfied
